Exercise: state measured melting point for each of the compounds provided.

melting point recorded for this compound, CC(C)Oc1ccc(C(CC(N)=O)N2C(=O)c3ccccc3C2=O)cc1OC(C)C (stereo not given) , is 153 to 154 °C

melting point recorded for this compound, O=C1C(=C2CCCN2Cc2ccccc2)c2ccccc2N1c1cccc(Cl)c1 , is 72 to 75 °C

melting point recorded for this compound, O=C1C(=O)c2ccc(F)cc2C2=C1SCC1(CCN(CC(O)Cc3ccccc3)CC1)O2 (stereo not given) , is 76 to 77 °C

melting point recorded for this compound, CC12CCC3C(CC(Cl)C4(O)CC=CCC34C)C1CC=C2Br (stereo not given) , is 125 to 126 °C

melting point recorded for this compound, COc1cc(C(N)C(N)=O)c(F)cc1Cl (stereo not given) , is 162 °C

melting point recorded for this compound, O=C(CC(NC(=O)Cc1ccccc1)c1ccccc1)Nc1n[nH]c(=S)s1 (stereo not given) , is 249 to 250 °C

melting point recorded for this compound, Cc1ccc(Cl)c(Nc2ccccc2-c2nnc(S(C)=O)s2)c1Cl (stereo not given) , is 158 to 160 °C

melting point recorded for this compound, O=C1c2cccc(NC(=S)Nc3ccccn3)c2C2CCCCN12 (stereo not given) , is 195 °C

melting point recorded for this compound, COc1ccc(S(=O)(=O)N2CCc3cccc(-c4ccc(C=O)cc4)c32)cc1 , is 152 to 153 °C

melting point recorded for this compound, O=C(Nc1ccc([N+](=O)[O-])cc1)N(O)C1CCCCCCC1 , is 143 to 144 °C

melting point recorded for this compound, Cc1ccc(N2CCNCC2)c2c1CC[C@@H](NC(=O)c1ccc(N3CCOCC3)cc1)C2 , is 207 to 210 °C

melting point recorded for this compound, Nc1cccc(-n2c(=O)c3c(Cc4ccccc4)n[nH]c3c3cccnc32)c1 , is 277 to 279 °C

melting point recorded for this compound, CN(c1ccc(O)cc1)c1ncnc2cc(Cl)ccc12 , is 165 °C

melting point recorded for this compound, COc1cccc(CNC(=O)c2nc3scc(COc4ccc(C(=O)O)cc4)c3c(=O)[nH]2)c1 , is 297 to 299 °C

melting point recorded for this compound, Oc1ccc(-c2ncc3ncc(-c4cccs4)cc3n2)cc1 , is 240 to 242 °C

melting point recorded for this compound, O=C(Nc1ccc(Oc2ccccc2)cc1)N1CCN(c2ncnc3ccccc23)CC1 , is 74 to 75 °C

melting point recorded for this compound, CCOC(=O)c1cc2n(C)c3ccc(OC)cc3c(=O)n2n1 , is 249 to 251 °C

melting point recorded for this compound, CC(c1ccc(N(C)C)cc1)c1ccc(N(C)C)cc1 , is 68 °C

melting point recorded for this compound, CCc1cc2c(cc1OCc1ccccc1)CCC1C2CCC2(C)C(CCO[Si](c3ccccc3)(c3ccccc3)C(C)(C)C)CCC12 (stereo not given) , is 48 to 50 °C

melting point recorded for this compound, CCC1Cc2ccc([N+](=O)[O-])cc2C=N1 (stereo not given) , is 61 to 62 °C

----------
Exercise: state measured melting point for each of the compounds provided.

melting point recorded for this compound, CCCCn1c(=O)c(NC(=O)Nc2c(C(C)C)cc(N)cc2C(C)C)c(-c2cccc(OCCCO)c2)c2cccnc21 , is 153 to 155 °C

melting point recorded for this compound, COC(=O)c1cc2ccc(OC)cc2n1CCN1CCC(N)CC1 , is 101 °C

melting point recorded for this compound, CCCc1c(OCc2ccccc2)ccc2c(=O)cc(/C=C/C(=O)OCC)oc12 , is 140 °C

melting point recorded for this compound, CCOC(=O)/C=C/c1cn(Cc2ccc(OCc3ccccc3)cc2)nc1-c1ccccc1 , is 94 to 95 °C

melting point recorded for this compound, C=C(C(=O)OC)c1ccc2c(=O)c3ccccc3ccc2c1 , is 153 to 156 °C

melting point recorded for this compound, O=C1C(=O)N(CCCN2CCN(C(c3ccccc3)(c3ccccc3)c3ccccc3)CC2)c2ccccc21 , is 145 to 149 °C

melting point recorded for this compound, Cc1nc2c(cc1C(=O)O)CCCCC2 , is 167 to 169 °C

melting point recorded for this compound, CCCc1c(OCCCCCCc2cc(C)c(OC)c(OC)c2C)ccc(C(=O)O)c1O , is 109 to 112 °C

melting point recorded for this compound, CCCCCCCCCCCCSCCCN(CCO)CCO , is 53 to 54 °C

melting point recorded for this compound, Cc1cc2c(cc1C)=NC(=O)N=2 , is > 360 °C
